Just for reference, patent US20250242064A1 is where these values come from.

test: in vivo; set-up: species or system mice; details: male, NOD.Cg-Rag1tm1Mom Il2rgtm1Wjl/SzJ (NRG), mouse, iv, total radioactivity, Biodistribution: Liver
Where a SMILES comes first, the peptide text is derived from it. Bridges are numbered along the chain shown (N, C = ends). [ ]: non-standard residue; d: D form. The star is where a group is joined. X5 = O=C(O)CN1CCN(CC(=O)O)CCN(CC(=O)N[C@@H](CS(=O)(=O)O)C(=O)N[C@@H](CCCCNC(=O)CCCc2ccc(Cl)cc2)C(=O)*)CCN(CC(=O)O)CC1; 2Nal = N[C@@H](Cc1ccc2ccccc2c1)C(=O)O; Lys(iPr) = CC(C)NCCCC[C@H](N)C(=O)O
RESULT_TYPE: tissue uptake at 3 h (%ID/g)
Use %ID/g as the unit, but write only the number.

For reference, reported tissue uptake at 3 h for CC(C)NCCCC[C@H](NC(=O)[C@H]1CCC(=O)N[C@@H](CCCCNC(=O)[C@H](CCCCNC(=O)CCCc2ccc(Cl)cc2)NC(=O)[C@H](CS(=O)(=O)O)NC(=O)CN2CCN(CC(=O)O)CCN(CC(=O)O)CCN(CC(=O)O)CC2)C(=O)N[C@@H](Cc2ccc(O)cc2)C(=O)N[C@@H](CCCCNC(C)C)C(=O)N[C@H](CCCNC(=N)N)C(=O)N[C@@H](Cc2ccc3ccccc3c2)C(=O)N[C@H](C)C(=O)N1)C(N)=O [[^68Ga]Ga-BL34L16, metal not drawn] (K(X5)Y[Lys(iPr)][dR][2Nal][dA][dE][Lys(iPr)]-NH2; lactam N-7) stands at 2.33

====

test: in vivo; set-up: species or system mice; details: male, NOD.Cg-Rag1tm1Mom Il2rgtm1Wjl/SzJ (NRG), mouse, iv, total radioactivity, Ratio Tumor-to-Pancreas
Where a SMILES comes first, the peptide text is derived from it. Bridges are numbered along the chain shown (N, C = ends). [ ]: non-standard residue; d: D form. The star is where a group is joined. X1 = O=C(O)CN1CCN(CC(=O)O)CCN(CC(=O)N[C@@H](CS(=O)(=O)O)C(=O)N[C@@H](CCCCNC(=O)CCCc2ccc(I)cc2)C(=O)*)CCN(CC(=O)O)CC1; 2Nal = N[C@@H](Cc1ccc2ccccc2c1)C(=O)O; Lys(iPr) = CC(C)NCCCC[C@H](N)C(=O)O
RESULT_TYPE: tissue to tissue ratio at 3 h
Keep the answer to the number alone.

tissue to tissue ratio at 3 h measured on CC(C)NCCCC[C@H](NC(=O)[C@H]1CCC(=O)N[C@@H](CCCCNC(=O)[C@H](CCCCNC(=O)CCCc2ccc(I)cc2)NC(=O)[C@H](CS(=O)(=O)O)NC(=O)CN2CCN(CC(=O)O)CCN(CC(=O)O)CCN(CC(=O)O)CC2)C(=O)N[C@@H](Cc2ccc(O)cc2)C(=O)N[C@@H](CCCCNC(C)C)C(=O)N[C@H](CCCNC(=N)N)C(=O)N[C@@H](Cc2ccc3ccccc3c2)C(=O)N[C@H](C)C(=O)N1)C(N)=O [[^68Ga]Ga-BL34L11, metal not drawn] (K(X1)Y[Lys(iPr)][dR][2Nal][dA][dE][Lys(iPr)]-NH2; lactam N-7) = 7.95

====

experiment: in vivo; design: species or system mice; conditions: male, NOD.Cg-Rag1tm1Mom Il2rgtm1Wjl/SzJ (NRG), mouse, iv, total radioactivity, Biodistribution: Bone
Where a SMILES comes first, the peptide text is derived from it. Bridges are numbered along the chain shown (N, C = ends). Side-chain parts run from the residue outwards. [ ]: non-standard residue; d: D form. The star is where a group is joined. X4 = O=C(O)CN1CCN(CC(=O)O)CCN(CC(=O)N[C@@H](CS(=O)(=O)O)C(=O)NCCCC[C@H](NC(=O)CNC(=O)CCCc2ccc(Cl)cc2)C(=O)*)CCN(CC(=O)O)CC1; X3 = O=C(O)CN1CCN(CC(=O)O)CCN(CC(=O)N[C@@H](CS(=O)(=O)O)C(=O)N[C@@H](CCCCNC(=O)CCCc2ccc(Br)cc2)C(=O)*)CCN(CC(=O)O)CC1; X5 = O=C(O)CN1CCN(CC(=O)O)CCN(CC(=O)N[C@@H](CS(=O)(=O)O)C(=O)N[C@@H](CCCCNC(=O)CCCc2ccc(Cl)cc2)C(=O)*)CCN(CC(=O)O)CC1; X1 = O=C(O)CN1CCN(CC(=O)O)CCN(CC(=O)N[C@@H](CS(=O)(=O)O)C(=O)N[C@@H](CCCCNC(=O)CCCc2ccc(I)cc2)C(=O)*)CCN(CC(=O)O)CC1; X6 = COc1ccc(CCCC(=O)NCCCC[C@H](NC(=O)[C@H](CS(=O)(=O)O)NC(=O)CN2CCN(CC(=O)O)CCN(CC(=O)O)CCN(CC(=O)O)CC2)C(=O)*)cc1; X7 = COc1ccc(CCCC(=O)NCCCC[C@H](NC(=O)CN2CCN(CC(=O)O)CCN(CC(=O)O)CCN(CC(=O)O)CC2)C(=O)*)cc1; DOTA = O=C(O)CN1CCN(CC(=O)O)CCN(CC(=O)*)CCN(CC(=O)O)CC1; NMeLys(iPr) = CN[C@@H](CCCCNC(C)C)C(=O)O; 2Nal = N[C@@H](Cc1ccc2ccccc2c1)C(=O)O; Lys(iPr) = CC(C)NCCCC[C@H](N)C(=O)O; Cya = N[C@@H](CS(=O)(=O)O)C(=O)O
RESULT_TYPE: tissue uptake at 1 h (%ID/g)
A number alone suffices; assume %ID/g.

COMPOUND	tissue uptake at 1 h / %ID/g
CC(C)NCCCC[C@H](NC(=O)[C@H]1CCC(=O)N[C@@H](CCCCNC(=O)[C@H](CCCCNC(=O)CCCc2ccc(Cl)cc2)NC(=O)[C@H](CS(=O)(=O)O)NC(=O)CN2CCN(CC(=O)O)CCN(CC(=O)O)CCN(CC(=O)O)CC2)C(=O)N[C@@H](Cc2ccc(O)cc2)C(=O)N[C@@H](CCCCNC(C)C)C(=O)N[C@H](CCCNC(=N)N)C(=O)N[C@@H](Cc2ccc3ccccc3c2)C(=O)N[C@H](C)C(=O)N1)C(N)=O [[^68Ga]Ga-BL34L16, metal not drawn] (K(X5)Y[Lys(iPr)][dR][2Nal][dA][dE][Lys(iPr)]-NH2; lactam N-7)	2.65
CC(C)NCCCC[C@H](NC(=O)[C@H]1CCC(=O)N[C@@H](CCCCNC(=O)[C@H](CCCCNC(=O)CCCc2ccc(I)cc2)NC(=O)[C@H](CS(=O)(=O)O)NC(=O)CN2CCN(CC(=O)O)CCN(CC(=O)O)CCN(CC(=O)O)CC2)C(=O)N[C@@H](Cc2ccc(O)cc2)C(=O)N[C@@H](CCCCNC(C)C)C(=O)N[C@H](CCCNC(=N)N)C(=O)N[C@@H](Cc2ccc3ccccc3c2)C(=O)N[C@H](C)C(=O)N1)C(N)=O [[^68Ga]Ga-BL34L11, metal not drawn] (K(X1)Y[Lys(iPr)][dR][2Nal][dA][dE][Lys(iPr)]-NH2; lactam N-7)	1.53
COc1ccc(CCCC(=O)NCCCC[C@H](NC(=O)[C@H](CS(=O)(=O)O)NC(=O)CN2CCN(CC(=O)O)CCN(CC(=O)O)CCN(CC(=O)O)CC2)C(=O)NCCCC[C@@H]2NC(=O)CC[C@H](C(=O)N[C@@H](CCCCNC(C)C)C(N)=O)NC(=O)[C@@H](C)NC(=O)[C@H](Cc3ccc4ccccc4c3)NC(=O)[C@@H](CCCNC(=N)N)NC(=O)[C@H](CCCCNC(C)C)NC(=O)[C@H](Cc3ccc(O)cc3)NC2=O)cc1 [[^68Ga]Ga-BL34L7, metal not drawn] (K(X6)Y[Lys(iPr)][dR][2Nal][dA][dE][Lys(iPr)]-NH2; lactam N-7)	0.4
CC(C)NCCCC[C@H](NC(=O)[C@@H]1CCSc2c3cccc([N+](=O)[O-])c3cn2[C@@H](CCCCNC(=O)[C@H](CS(=O)(=O)O)NC(=O)CN2CCN(CC(=O)O)CCN(CC(=O)O)CCN(CC(=O)O)CC2)C(=O)CC(Cc2ccc(O)cc2)C(=O)N[C@@H](CCCCNC(C)C)C(=O)N[C@H](CCCNC(=N)N)C(=O)N[C@@H](Cc2ccc3ccccc3c2)C(=O)N[C@H](C)C(=O)N1)C(N)=O (some centres unmarked) [[^68Ga]Ga-3NOPA-BL34L2, metal not drawn]	0.56
COc1ccc(CCCC(=O)NCCCC[C@H](NC(=O)CN2CCN(CC(=O)O)CCN(CC(=O)O)CCN(CC(=O)O)CC2)C(=O)N[C@@H](CS(=O)(=O)O)C(=O)NCCCC[C@@H]2NC(=O)CC[C@H](C(=O)N[C@@H](CCCCNC(C)C)C(N)=O)NC(=O)[C@@H](C)NC(=O)[C@H](Cc3ccc4ccccc4c3)NC(=O)[C@@H](CCCNC(=N)N)NC(=O)[C@H](CCCCNC(C)C)NC(=O)[C@H](Cc3ccc(O)cc3)NC2=O)cc1 [[68Ga]Ga-BL34L6, metal not drawn] (K([Cya-X7])Y[Lys(iPr)][dR][2Nal][dA][dE][Lys(iPr)]-NH2; lactam N-7)	0.14

Entry under test: CC(C)NCCCC[C@H](NC(=O)[C@H]1CCC(=O)N[C@@H](CCCCNC(=O)[C@H](CCCCNC(=O)[C@H](CS(=O)(=O)O)NC(=O)CN2CCN(CC(=O)O)CCN(CC(=O)O)CCN(CC(=O)O)CC2)NC(=O)CNC(=O)CCCc2ccc(Cl)cc2)C(=O)N[C@@H](Cc2ccc(O)cc2)C(=O)N[C@@H](CCCCNC(C)C)C(=O)N[C@H](CCCNC(=N)N)C(=O)N[C@@H](Cc2ccc3ccccc3c2)C(=O)N[C@H](C)C(=O)N1)C(N)=O [[68Ga]Ga-BL34T1, metal not drawn] (K(X4)Y[Lys(iPr)][dR][2Nal][dA][dE][Lys(iPr)]-NH2; lactam N-7) . Its tissue uptake at 1 h was 1.04

// tissue uptake at 1 h value for CC(C)NCCCC[C@H](NC(=O)[C@H]1CCC(=O)N[C@@H](CCCCNC(=O)[C@H](CS(=O)(=O)O)NC(=O)CN2CCN(CC(=O)O)CCN(CC(=O)O)CCN(CC(=O)O)CC2)C(=O)N[C@@H](Cc2ccc(O)cc2)C(=O)N(C)[C@@H](CCCCNC(C)C)C(=O)N[C@H](CCCNC(=N)N)C(=O)N[C@@H](Cc2ccc3ccccc3c2)C(=O)N[C@H](C)C(=O)N1)C(N)=O [[^68Ga]Ga-BL34N1, metal not drawn] (K([Cya-DOTA])Y[NMeLys(iPr)][dR][2Nal][dA][dE][Lys(iPr)]-NH2; lactam N-7) : 0.13

Entry CC(C)NCCCC[C@H](NC(=O)[C@H]1CCC(=O)N[C@@H](CCCCNC(=O)[C@H](CCCCNC(=O)CCCc2ccc(Br)cc2)NC(=O)[C@H](CS(=O)(=O)O)NC(=O)CN2CCN(CC(=O)O)CCN(CC(=O)O)CCN(CC(=O)O)CC2)C(=O)N[C@@H](Cc2ccc(O)cc2)C(=O)N[C@@H](CCCCNC(C)C)C(=O)N[C@H](CCCNC(=N)N)C(=O)N[C@@H](Cc2ccc3ccccc3c2)C(=O)N[C@H](C)C(=O)N1)C(N)=O [[^177Lu]Lu-BL34L20, metal not drawn] (K(X3)Y[Lys(iPr)][dR][2Nal][dA][dE][Lys(iPr)]-NH2; lactam N-7) ; tissue uptake at 1 h = 1.02
